Sourced from patent US20240158446A1

List of Kd values.
target: GDP-bound KRAS wild-type protein (Homo sapiens); assay: Binding to KRAS by surface plasmon resonance (SPR), Single Cycle Kinetics; conditions: SPR Single Cycle Kinetics, GDP-bound KRAS wild-type protein, 1:1 binding model; read-out: KRAS KD
Sequence (P01116 whole entry): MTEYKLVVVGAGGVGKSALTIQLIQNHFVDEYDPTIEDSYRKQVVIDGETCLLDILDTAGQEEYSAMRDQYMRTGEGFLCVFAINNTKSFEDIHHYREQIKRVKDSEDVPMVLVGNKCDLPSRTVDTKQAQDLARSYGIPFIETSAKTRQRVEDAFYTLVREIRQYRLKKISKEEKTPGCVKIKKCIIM
Where a SMILES comes first, the peptide text is derived from it. Bridges are numbered along the chain shown (N, C = ends). [ ]: non-standard residue; d: D form. The star is where a group is joined. hPhe(3-Cl-4-CF3) = N[C@@H](CCc1ccc(C(F)(F)F)c(Cl)c1)C(=O)O; NPrPhe(4-CF3) = CCCN[C@@H](Cc1ccc(C(F)(F)F)cc1)C(=O)O; NPrPhe(4-Me) = CCCN[C@@H](Cc1ccc(C)cc1)C(=O)O; NMeGly(cPent) = CN[C@H](C(=O)O)C1CCCC1; Aze(3S-Me) = C[C@H]1CN[C@@H]1C(=O)O; NMeD = CN[C@@H](CC(=O)O)C(=O)O; NMeL = CN[C@@H](CC(C)C)C(=O)O; Morpholide = C1CN(*)CCO1; NMeA = CN[C@@H](C)C(=O)O; Ac5c = NC1(C(=O)O)CCCC1; Ac4c = NC1(C(=O)O)CCC1; Sar = CNCC(=O)O
The figure you give is taken to be in nM; do not add the unit.

Would you please look over these solved cases?
# Compound, Tested target, Quantity kind, Endpoint value
data = [
    ("CCC[C@H]1C(=O)N[C@@H](CC(C)C)C(=O)N(CCOC)CC(=O)N(C)[C@H]2C/C=C\\CCN(C2=O)[C@@H](Cc2ccc(C)cc2)C(=O)N(C)CC(=O)N[C@@H](CCc2ccc(C(F)(F)F)c(OC)c2)C(=O)N2C[C@H](OCC)C[C@H]2C(=O)NC2(CCC2)C(=O)N(C)[C@@H](C2CCCC2)C(=O)N(C)[C@H](C(=O)N(C)C)CC(=O)N1C [PP2542]", "GDP-bound KRAS wild-type protein (Homo sapiens)", "Kd", 4.6),
    ("CCO[C@@H]1C[C@H]2C(=O)NC3(CC(C)(C)C3)C(=O)N(C)[C@@H](C(CC)CC)C(=O)N(C)[C@H](C(=O)N3CCCC3)CC(=O)N(C)[C@H]3CCC/C=C/c4ccc(cc4)C[C@@H](C(=O)N(C)CC(=O)N[C@@H](CCc4cc(F)c(C(F)(F)F)c(F)c4)C(=O)N2C1)N1CC/C=C\\C[C@@H](C1=O)N(C)C(=O)CN(C)C(=O)[C@H]([C@@H](C)CC)NC3=O [PP2576]", "GDP-bound KRAS wild-type protein (Homo sapiens)", "Kd", 0.14),
    ("CCCN1C(=O)CN(C)C(=O)CNC(=O)[C@H]([C@@H](C)CC)NC(=O)[C@H](CC(C)C)N(C)C(=O)C[C@@H](C(=O)N(C)C)N(C)C(=O)[C@H](C2CCCC2)N(C)C(=O)C2(CCC2)NC(=O)[C@@H]2CCCN2C(=O)[C@H](CCc2ccc(C(F)(F)F)c(Cl)c2)NC(=O)CN(C)C(=O)[C@@H]1Cc1ccc(C(F)(F)F)cc1 [PP0418] ([NMeL]IG[Sar][NPrPhe(4-CF3)][Sar][hPhe(3-Cl-4-CF3)]P[Ac4c][NMeGly(cPent)][NMeD]-NMe2; lactam N-11)", "GDP-bound KRAS wild-type protein (Homo sapiens)", "Kd", 0.074),
]

**Q:** So what's the measured Kd for this one? CCCN1C(=O)[C@@H]2[C@@H](C)CN2C(=O)[C@H](C)N(C)C(=O)[C@H]([C@@H](C)CC)NC(=O)[C@H](CC(C)C)N(C)C(=O)C[C@@H](C(=O)N2CCOCC2)N(C)C(=O)[C@H](C2CCCC2)N(C)C(=O)C2(CCCC2)NC(=O)[C@@H]2CCCN2C(=O)[C@H](CCc2ccc(C(F)(F)F)c(Cl)c2)NC(=O)CN(C)C(=O)[C@@H]1Cc1ccc(C)cc1 [PP0138] ([NMeL]I[NMeA][Aze(3S-Me)][NPrPhe(4-Me)][Sar][hPhe(3-Cl-4-CF3)]P[Ac5c][NMeGly(cPent)][NMeD]-Morpholide; lactam N-11)
**A:** 0.77

**Q:** So what's the measured Kd for this one? CCC[C@H]1C(=O)N[C@@H]([C@@H](C)CC)C(=O)N(C)CC(=O)N(C)[C@H]2C/C=C\CCN(C2=O)[C@@H](Cc2ccc(C(F)(F)F)cc2)C(=O)N(C)CC(=O)N[C@@H](CCc2ccc(Cl)c(OC)c2)C(=O)N2C[C@H](OCC)C[C@H]2C(=O)NC2(CC(C)(C)C2)C(=O)N(C)[C@@H](C2CCCC2)C(=O)N(C)[C@H](C(=O)N(C)C)CC(=O)N1C [PP2788]
**A:** 0.45

###

List of pKd values.
biological target: GDP-bound KRAS wild-type protein (Homo sapiens); test: Binding to KRAS by surface plasmon resonance (SPR), Single Cycle Kinetics; conditions: SPR, Single Cycle Kinetics, GDP-bound KRAS wild-type protein; read-out: KRAS KD
Lab note: report pKd as minus log10 of the concentration in molar units, number only.

Would you please look over these solved cases?
# Compound, Endpoint value
records = [
    ("CCO[C@@H]1C[C@H]2C(=O)NC3(CCC3)C(=O)N(C)[C@@H](C3CCCC3)C(=O)N(C)[C@H](C(=O)N(C)C)CC(=O)N(C)[C@@H](CC)C(=O)N[C@@H]([C@@H](C)CC)C(=O)N(C)CC(=O)N(C)[C@H]3CCCCCN(C3=O)[C@@H](Cc3ccc(F)c(OC)c3)C(=O)N(C)CC(=O)N[C@@H](CCc3cc(F)c(C(F)(F)F)c(F)c3)C(=O)N2C1 [PP0915]", 9.85),
    ("CC[C@H](C)[C@@H]1NC(=O)[C@H](CC)N(C)C(=O)C[C@@H](C(=O)N(C)C)N(C)C(=O)[C@H](C2CCCC2)N(C)C(=O)C2(CC(C)(C)C2)NC(=O)[C@@H]2C[C@H](C)CN2C(=O)[C@H](CCc2ccc(C(F)(F)F)c(OC)c2)NC(=O)CN(C)C(=O)[C@H](Cc2ccc(C)cc2)N2CC/C=C\\C[C@@H](C2=O)N(C)C(=O)CN(C)C1=O [PP1836]", 10.00),
    ("CCCO[C@H]1CCN2C(=O)[C@H](CCc3cc(F)c(C(F)(F)F)c(F)c3)NC(=O)CN(C)C(=O)[C@H](Cc3ccc(C(F)(F)F)cc3)N3CCCCC[C@@H](C3=O)N(C)C(=O)CN(C)C(=O)[C@H]([C@@H](C)CC)NC(=O)[C@H](CC(C)C)N(C)C(=O)C[C@@H](C(=O)N3CCOCC3)N(C)C(=O)[C@H](C3CCCC3)N(C)C(=O)C3(CCC3)NC(=O)[C@H]12 [PP1069]", 8.60),
    ("CCO[C@@H]1C[C@H]2C(=O)NC3(CCC3)C(=O)N(C)[C@@H](C3CCCC3)C(=O)N(C)[C@H](C)CC(=O)N(C)[C@@H](CC)C(=O)N[C@@H]([C@@H](C)CC)C(=O)N(C)CC(=O)N(C)[C@H]3C/C=C\\CCN(C3=O)[C@@H](Cc3ccc(C(F)(F)F)cc3)C(=O)N(C)CC(=O)N[C@@H](CCc3cc(F)c(C(F)(F)F)c(F)c3)C(=O)N2C1 [PP1095]", 9.74),
    ("CCO[C@@H]1C[C@H]2C(=O)NC3(CCC3)C(=O)N(C)[C@@H](C3CCCC3)C(=O)N(C)[C@H](C(=O)N(C)C)CC(=O)N(C)[C@@H](C)C(=O)N[C@@H]([C@@H](C)CC)C(=O)N(C)CC(=O)N(C)[C@H]3CCCCCN(C3=O)[C@@H](Cc3ccc(F)cc3)C(=O)N(C)CC(=O)N[C@@H](CCc3cc(F)c(C(F)(F)F)c(F)c3)C(=O)N2C1 [PP1189]", 10.18),
    ("CCO[C@@H]1C[C@H]2C(=O)NC3(CCC3)C(=O)N(C)[C@@H](C3CCCC3)C(=O)N(C)[C@H](C(=O)N(C)C)CC(=O)N(C)[C@@H](COC)C(=O)N[C@@H]([C@@H](C)CC)C(=O)NCC(=O)N(C)[C@H]3CCCCCN(C3=O)[C@@H](Cc3ccc(C(F)(F)F)cc3)C(=O)N(C)CC(=O)N[C@@H](CCc3cc(F)c(C(F)(F)F)c(F)c3)C(=O)N2C1 [PP0859]", 9.51),
]

Consider now this further compound.
**Q:** Identify the measured pKd of CCOC[C@H]1C(=O)N[C@@H]([C@@H](C)CC)C(=O)N2CCC[C@H]2C(=O)N(C)[C@H]2C/C=C\CCN(C2=O)[C@@H](CC2CCC(F)(F)CC2)C(=O)N(C)CC(=O)N[C@@H](CCc2ccc(C(F)(F)F)c(OC)c2)C(=O)N2C[C@H](OCC)C[C@H]2C(=O)N(C)C2(CCC2)C(=O)N(C)[C@@H](C(CC)CC)C(=O)N(C)[C@H](C(=O)N(C)C)CC(=O)N1C [PP2355] for GDP-bound KRAS wild-type protein (Homo sapiens).
**A:** 8.41
